Where do the numbers come from? From ChEMBL document CHEMBL1212871.

TEST DETAILS: Antioxidant activity assessed as inhibition of AAPH-induced lipid peroxidation in liposomes measured as Trolox equivalent antioxidant capacity
Format: functional
EXPERIMENTAL PARAMETERS: Liposome
# cutoff 2 applies to Ratio; >= gives MET, < gives NOT MET

Some solved entries appear below for comparison.
COMPOUND: CCCCCCNC(=O)/C=C/c1ccc(O)c(O)c1 [CAFFEOYLHEXYLAMIDE]
CAT: MET
//
COMPOUND: CCCCCCNC(=O)CCc1ccc(O)c(OC)c1 [HYDROFERULOYLHEXYLAMIDE]
CAT: NOT MET
//
COMPOUND: COc1cc(/C=C/C(=O)O)ccc1O [FERULATE]
CAT: NOT MET
//
COMPOUND: O=C(O)/C=C/c1ccc(O)c(O)c1
CAT: MET

Task: Exam item: decide whether the reported Ratio for CCCCCCOC(=O)CCc1ccc(O)c(O)c1 [HEXYLHYDROCAFFEATE] is at least 2.
Result: MET

Task: Exam item: decide whether the reported Ratio for CCCCCCOC(=O)CCc1ccc(O)c(OC)c1 [HEXYLHYDROFERULATE] is at least 2.
Result: NOT MET

Task: Exam item: decide whether the reported Ratio for O=C(O)CCc1ccc(O)c(O)c1 [DIHYDROCAFFEIC ACID] is at least 2.
Result: NOT MET

###

TEST DETAILS: Antioxidant activity assessed as inhibition of AAPH-induced lipid peroxidation in liposomes measured as Trolox equivalent antioxidant capacity
Format: functional
EXPERIMENTAL PARAMETERS: Liposome
With a cut-off of 1, any Ratio strictly below it is called 1; any Ratio meeting it or above is called -1.

Some solved entries appear below for comparison.
MOLECULE: CCCCCCNC(=O)CCc1ccc(O)c(O)c1 [HYDROCAFFEOYLHEXYLAMIDE]
CAT: -1

MOLECULE: COc1cc(CCC(=O)O)ccc1O [DIHYDROFERULIC ACID]
CAT: 1

MOLECULE: CCCCCCOC(=O)/C=C/c1ccc(O)c(O)c1 [HEXYLCAFFEATE]
CAT: -1

MOLECULE: CCCCCCOC(=O)/C=C/c1ccc(O)c(OC)c1 [HEXYLFERULATE]
CAT: -1

From here, focus on the item given below.
Task: Lab note: confirm whether the reported Ratio for this molecule is below 1, equality not counting. molecule: CCCCCCNC(=O)/C=C/c1ccc(O)c(OC)c1 [FERULOYLHEXYLAMIDE]
Result: -1

###

TEST DETAILS: Redox potential at pH 7.3 by differential pulse and cyclic voltametry
Format: physicochemical
What Redox potential was measured for each of the following?
Answers are plain numbers, in V.

MOLECULE: CCCCCCNC(=O)/C=C/c1ccc(O)c(OC)c1 [FERULOYLHEXYLAMIDE]
Redox potential (V): 0.322

For each of the molecules below, note its Redox potential.
1. CCCCCCOC(=O)/C=C/c1ccc(O)c(OC)c1 [HEXYLFERULATE]
2. O=C(O)/C=C/c1ccc(O)c(O)c1
3. COc1cc(CCC(=O)O)ccc1O [DIHYDROFERULIC ACID]
4. CCCCCCOC(=O)/C=C/c1ccc(O)c(O)c1 [HEXYLCAFFEATE]

Result:
0.328
0.183
0.41
0.175

For each of the molecules below, note its Redox potential.
1. CCCCCCNC(=O)/C=C/c1ccc(O)c(O)c1 [CAFFEOYLHEXYLAMIDE]
2. CCCCCCOC(=O)CCc1ccc(O)c(OC)c1 [HEXYLHYDROFERULATE]

Result:
1: 0.162; 2: 0.434

###

TEST DETAILS: Redox potential at pH 7.3 by differential pulse and cyclic voltametry
Format: physicochemical
RECORDED ENDPOINT: Redox potential (V)
Numbers only, in V.

For each of the compounds below, note its Redox potential.
1. CCCCCCNC(=O)CCc1ccc(O)c(O)c1 [HYDROCAFFEOYLHEXYLAMIDE]
2. COc1cc(/C=C/C(=O)O)ccc1O [FERULATE]
3. CCCCCCOC(=O)CCc1ccc(O)c(O)c1 [HEXYLHYDROCAFFEATE]
4. O=C(O)CCc1ccc(O)c(O)c1 [DIHYDROCAFFEIC ACID]
5. CCCCCCNC(=O)CCc1ccc(O)c(OC)c1 [HYDROFERULOYLHEXYLAMIDE]

Result:
0.125
0.35
0.125
0.139
0.388
